test: Plasma protein binding by equilibrium dialysis; type: in vitro ADME; details: male, Wistar, pH 7.4, rat plasma, 10 μmol/L, read-out: fu rat (free unbound drug in plasma)
fraction unbound at 18 h, 10 μM listing for selected compounds.
API doc: respond with a numeric literal and nothing else, no unit.

compound=CCNC(=O)[C@H]1O[C@@H](n2cnc3c(NCC(c4ccccc4)c4ccccc4)nc(NCCNC(=O)Nc4cc[n+](C)cc4)nc32)[C@H](O)[C@@H]1O observedresult=0.11

May I ask what fraction unbound at 18 h, 10 μM has been recorded for CCNC(=O)[C@H]1O[C@@H](n2cnc3c(N)nc(NCCc4ccc(CCC(=O)O)cc4)nc32)[C@H](O)[C@@H]1O [CGS21680, reference compound] ?
0.17

Bench note: what fraction unbound at 18 h, 10 μM did `CCNC(=O)[C@H]1O[C@@H](n2cnc3c(NC(CC)CC)nc(NCCNC(=O)Nc4ccncc4)nc32)[C@H](O)[C@@H]1O` show?
0.2

fraction unbound at 18 h, 10 μM for `CCNC(=O)[C@H]1O[C@@H](n2cnc3c(NC(CC)CC)nc(NCCNC(=O)Nc4cc[n+](C)cc4)nc32)[C@H](O)[C@@H]1O` ?
0.44

What value of fraction unbound at 18 h, 10 μM has been recorded for this entry: CCNC(=O)[C@H]1O[C@@H](n2cnc3c(NCC(c4ccccc4)c4ccccc4)nc(C(=O)NCCNC(=O)NC4CCN(c5ccccn5)CC4)nc32)[C@H](O)[C@@H]1O [UK-432,097, reference compound]
0.014

---

tested on: LPS-induced TNFα production in rat splenocytes; experiment: LPS-induced TNFα production in rat mononuclear spleen cells (rTNFα splenocytes); assay type: cell-based; settings: Splenocyte; LPS-stimulated TNFα release, rat splenocytes; average (SD)
Mark 1 only when IC50 stays strictly below 3 nM. Values equal to the cut-off are 0.

Lab note: confirm whether the reported IC50 for this molecule is below 3 nM, equality not counting. molecule: `CCNC(=O)[C@H]1O[C@@H](n2cnc3c(NC(CC)CC)nc(NCCNC(=O)Nc4ccncc4)nc32)[C@H](O)[C@@H]1O`
0

Dear reviewer, please state whether CCNC(=O)[C@H]1O[C@@H](n2cnc3c(NCC(c4ccccc4)c4ccccc4)nc(C(=O)NCCNC(=O)NC4CCN(c5ccccn5)CC4)nc32)[C@H](O)[C@@H]1O [UK-432,097, reference compound] has IC50 strictly beneath 3 nM.
1

Field: below-cutoff. Rule: recorded IC50 strictly less than 3 nM. Subject: CCNC(=O)[C@H]1O[C@@H](n2cnc3c(N)nc(NCCc4ccc(CCC(=O)O)cc4)nc32)[C@H](O)[C@@H]1O [CGS21680, reference compound]
0

Please indicate whether the reported IC50 of `CCNC(=O)[C@H]1O[C@@H](n2cnc3c(NCC(c4ccccc4)c4ccccc4)nc(NCCNC(=O)Nc4cc[n+](C)cc4)nc32)[C@H](O)[C@@H]1O` is strictly below 3 nM.
1

Does this molecule meet the criterion IC50 < 3 nM? `CCNC(=O)[C@H]1O[C@@H](n2cnc3c(NC(CC)CC)nc(NCCNC(=O)Nc4cc[n+](C)cc4)nc32)[C@H](O)[C@@H]1O`
1

---

Target: adenosine A1 receptor (Homo sapiens)
Sequence (P30542 1-326): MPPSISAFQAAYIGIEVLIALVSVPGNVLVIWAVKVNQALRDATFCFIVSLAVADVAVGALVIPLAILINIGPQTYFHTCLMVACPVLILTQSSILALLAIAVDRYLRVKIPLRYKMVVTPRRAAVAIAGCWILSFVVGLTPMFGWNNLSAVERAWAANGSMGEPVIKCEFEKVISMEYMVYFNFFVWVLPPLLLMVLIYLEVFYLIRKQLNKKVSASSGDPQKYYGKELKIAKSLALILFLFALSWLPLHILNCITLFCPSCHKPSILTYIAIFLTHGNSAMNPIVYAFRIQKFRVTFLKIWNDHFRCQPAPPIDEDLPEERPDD
Assay: Human A1 receptor pharmacology: GTPγ35[S] assay on membranes
Settings: average (SD)
measurementName: EC50
The answer should read as a number with its unit following.

# get_value(readout= EC50, system= adenosine A1 receptor (Homo sapiens)) for `CCNC(=O)[C@H]1O[C@@H](n2cnc3c(NC(CC)CC)nc(NCCNC(=O)Nc4cc[n+](C)cc4)nc32)[C@H](O)[C@@H]1O`
2100 nM

---

assay: In vivo pharmacokinetics in rats (i.v., oral, intratracheal); conditions: lung, inhaled or intranasal; rat, intratracheal dosing, n = 2/time point; read-out: Lung t½ (terminal half-life in lung) (converted)
Decision: half-life >= 400 min yields yes, all other cases yield no.

Solved cases below.
compound=CCNC(=O)[C@H]1O[C@@H](n2cnc3c(NC(CC)CC)nc(NCCNC(=O)Nc4ccncc4)nc32)[C@H](O)[C@@H]1O labelclass=no
compound=CCNC(=O)[C@H]1O[C@@H](n2cnc3c(NCC(c4ccccc4)c4ccccc4)nc(NCCNC(=O)Nc4cc[n+](C)cc4)nc32)[C@H](O)[C@@H]1O labelclass=yes
compound="CCNC(=O)[C@H]1O[C@@H](n2cnc3c(N)nc(NCCc4ccc(CCC(=O)O)cc4)nc32)[C@H](O)[C@@H]1O [CGS21680, reference compound]" labelclass=no
compound=CCNC(=O)[C@H]1O[C@@H](n2cnc3c(NC(CC)CC)nc(NCCNC(=O)Nc4cc[n+](C)cc4)nc32)[C@H](O)[C@@H]1O labelclass=yes

Note: attention shifts to another entry.
Please check the record CCNC(=O)[C@H]1O[C@@H](n2cnc3c(NCC(c4ccccc4)c4ccccc4)nc(C(=O)NCCNC(=O)NC4CCN(c5ccccn5)CC4)nc32)[C@H](O)[C@@H]1O [UK-432,097, reference compound] and state if its half-life is at or above 400 min.
no

---

assay: Substance solubility in phosphate buffer; assay type: physicochemical; conditions: aqueous buffer, thermodynamic from solid; phosphate buffer pH 7.4, dry compound in solid state
measurementName: solubility (µM)
Express it in µM; write the number only.

molecule="CCNC(=O)[C@H]1O[C@@H](n2cnc3c(NCC(c4ccccc4)c4ccccc4)nc(C(=O)NCCNC(=O)NC4CCN(c5ccccn5)CC4)nc32)[C@H](O)[C@@H]1O [UK-432,097, reference compound]" measurementname=solubility observedresult=12

From here, focus on the item given below.
solubility for CCNC(=O)[C@H]1O[C@@H](n2cnc3c(NCC(c4ccccc4)c4ccccc4)nc(NCCNC(=O)Nc4cc[n+](C)cc4)nc32)[C@H](O)[C@@H]1O [Compound 3] ?
420

---

Assay: In vivo pharmacokinetics in rats (i.v., oral, intratracheal)
Conditions: whole blood, 6 umol/kg; rat, oral, mean of n = 3; read-out: Rat oral F (bioavailability)
Procedure: Rat PK was determined after an i.v. dose of 0.1μmol/kg (approximately 50μg/kg, 1ml/kg, TEG:H2O 50:50) given via a catheter in vena jugularis. […] Intratracheal PK was determined at 0.03 to 0.6μmol/kg (17 to 300μg/kg, 1ml/kg, in a vehicle containing sodium chloride (8.5mg/ml), EDTA (0.1mg/ml), citric acid (0.15mg/ml), sodium citrate (0.5mg/ml) and polysorbate 80 (0.2mg/mL) in purified water). […] The lung vials were stored at –70°C until analyzed. […]
measurementName: bioavailability

compound="CCNC(=O)[C@H]1O[C@@H](n2cnc3c(NC(CC)CC)nc(NCCNC(=O)Nc4ccncc4)nc32)[C@H](O)[C@@H]1O [Compound 1]" observedresult=1.4%

Recorded bioavailability for CCNC(=O)[C@H]1O[C@@H](n2cnc3c(NC(CC)CC)nc(NCCNC(=O)Nc4cc[n+](C)cc4)nc32)[C@H](O)[C@@H]1O [Compound 2] , please?
0.3%

---

biological target: A2a (Homo sapiens, UniProt P29274); assay: Human A2a receptor pharmacology: cAMP Alphascreen in CHO-K1 cells; conditions: cAMP generation; average (SD)
Sequence (P29274 whole entry): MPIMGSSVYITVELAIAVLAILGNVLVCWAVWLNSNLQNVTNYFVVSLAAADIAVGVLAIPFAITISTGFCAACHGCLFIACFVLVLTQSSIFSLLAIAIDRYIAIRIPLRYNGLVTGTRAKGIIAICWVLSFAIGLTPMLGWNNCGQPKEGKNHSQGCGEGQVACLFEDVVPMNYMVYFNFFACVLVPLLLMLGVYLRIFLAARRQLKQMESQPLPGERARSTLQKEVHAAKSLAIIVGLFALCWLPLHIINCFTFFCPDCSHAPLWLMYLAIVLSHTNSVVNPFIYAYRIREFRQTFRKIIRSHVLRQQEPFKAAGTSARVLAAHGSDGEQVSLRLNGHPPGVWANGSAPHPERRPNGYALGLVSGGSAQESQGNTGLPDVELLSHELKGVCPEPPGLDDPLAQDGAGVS
measurementName: pEC50
Quick note: pEC50 values are minus log10 of concentrations in mol/L.

smilesdata=CCNC(=O)[C@H]1O[C@@H](n2cnc3c(NCC(c4ccccc4)c4ccccc4)nc(NCCNC(=O)Nc4cc[n+](C)cc4)nc32)[C@H](O)[C@@H]1O observedresult=9.40
smilesdata=CCNC(=O)[C@H]1O[C@@H](n2cnc3c(NC(CC)CC)nc(NCCNC(=O)Nc4cc[n+](C)cc4)nc32)[C@H](O)[C@@H]1O observedresult=8.85

Proceed to the following item.
pEC50 for `CCNC(=O)[C@H]1O[C@@H](n2cnc3c(NC(CC)CC)nc(NCCNC(=O)Nc4ccncc4)nc32)[C@H](O)[C@@H]1O` ?
8.62

---

test system: mean arterial blood pressure and heart rate; experiment: Swivel study: four-step i.v. infusion in conscious rats, PK-PD of MAP and HR; assay type: in vivo, rat; details: Rattus norvegicus, iv, rat plasma concentration, sigmoid Emax model, mean ± SD; read-out: EC50,MAP (plasma concentration that induces half the maximum MAP decrease)
measurementName: EC50 (nM)
State just the number; it will be interpreted in nM.

Quick one: EC50 for `CCNC(=O)[C@H]1O[C@@H](n2cnc3c(NC(CC)CC)nc(NCCNC(=O)Nc4cc[n+](C)cc4)nc32)[C@H](O)[C@@H]1O` ?
0.5
